Values were extracted from patent US5468756A.

Test system: zymosan-induced paw edema
PROCEDURE_TEXT: Effect on zymosan-induced paw edema
Format: in vivo, male Wistar rats
CONDITION_PARAMETERS: Rattus norvegicus, po; 25 mg/kg P.O.; read-out: Suppression rate for paw swelling, zymosan-induced edema
Measured inhibition in vivo at 25 mg/kg, listed per entry for reference.
REPORTED_PROPERTY: inhibition in vivo at 25 mg/kg (%)

1) C=CCn1cnc2c3cccnc3n(-c3ccccc3)c(=O)c21
67.3
2) COc1cccc(Cn2cnc3c4cccnc4n(-c4ccccc4)c(=O)c32)c1
43.5
3) Cc1cccc(Cn2cnc3c4cccnc4n(-c4ccccc4)c(=O)c32)c1
33.3
4) O=c1c2c(ncn2CCc2ccccc2)c2cccnc2n1-c1ccccc1
25.7
5) CCCn1cnc2c3cccnc3n(-c3ccccc3)c(=O)c21
61.2
6) CCCCn1cnc2c3cccnc3n(-c3ccccc3)c(=O)c21
55.5
7) O=c1c2c(ncn2Cc2ccccc2)c2cccnc2n1-c1cccc(Cl)c1
47.9
8) COc1ccc(Cn2cnc3c4cccnc4n(-c4ccccc4)c(=O)c32)cc1
66.9
9) O=c1c2c(ncn2Cc2cccc([N+](=O)[O-])c2)c2cccnc2n1-c1ccccc1
35.7
10) O=c1c2c(ncn2Cc2ccc([N+](=O)[O-])cc2)c2cccnc2n1-c1ccccc1
45.6
11) CCCCn1c(=O)c2c(ncn2CCC)c2cccnc21
21.1
12) Cc1ccc(Cn2cnc3c4cccnc4n(-c4ccccc4)c(=O)c32)cc1
56.2
13) COc1cccc(-n2c(=O)c3[nH]cnc3c3cccnc32)c1
18.1
14) O=c1c2c(ncn2Cc2ccc(Cl)cc2)c2cccnc2n1-c1ccccc1
42.8
15) CCOCCn1cnc2c3cccnc3n(-c3ccccc3)c(=O)c21
57.4
